Data origin, for the record: a melting point compilation (Tetko et al.; mined from patent text by program, amines drawn as free bases though some values may be those of a salt)

measured.attribute: melting point

[[record]]
compound = "CCc1nc2c(N)nc3ccccc3c2s1"
obs_value = "170 to 172 °C"

[[record]]
compound = "CCCCCCCCCCCCCCOc1ccc(NCc2cccnc2)cc1"
obs_value = "75 to 76 °C"

[[record]]
compound = "COc1ccc(CN2C(=O)CCC2C(=O)O)cc1 (stereo not given)"
obs_value = "103 to 104 °C"

[[record]]
compound = "CN1Sc2ccccc2C(=O)C1C(=O)Nc1coc2ccccc2c1=O (stereo not given)"
obs_value = "290 °C"


Could you now consider this next compound?
Hello, please tell me recorded melting point for this one: COC(=O)c1ccc(C(=O)c2cc3c(cc2OCc2ccc(C(C)(C)C)cc2)C(C)(C)CCC3(C)C)cc1 168 to 170 °C

====

measured.attribute: melting point

Below, each entry is followed by its recorded melting point result.
[[record]]
molecule = "Cc1nnc2c(Cl)nc3ccc(Cl)cc3n12"
measured_attribute = "melting point"
obs_value = "> 280 °C"

[[record]]
molecule = "CCCCCCCCCCCCCCCC(=O)Oc1ccc(C(O)C(C)N2CCC(Cc3ccccc3)CC2)cc1 (stereo not given)"
measured_attribute = "melting point"
obs_value = "75 to 77 °C"

[[record]]
molecule = "Cc1nc2c3c(ccc2n1C)[C@@H](OCCF)[C@H](O)[C@@H](c1ccccc1)O3"
measured_attribute = "melting point"
obs_value = "226 °C"

[[record]]
molecule = "O=C1CCCc2ccc(=O)[nH]c21"
measured_attribute = "melting point"
obs_value = "253 °C"

[[record]]
molecule = "CC(C)(C)OC(=O)NCc1ccccc1N"
measured_attribute = "melting point"
obs_value = "94 to 95 °C"

[[record]]
molecule = "CCN1C(=O)C(C)(C)C(=O)N(C)c2cc(CN(CCn3ccc4oc(C)cc4c3=O)Cc3ccnnc3)ccc21"
measured_attribute = "melting point"
obs_value = "137 to 141 °C"

[[record]]
molecule = "Cc1ccc(CC2CCN(CCS(=O)c3ccc4[nH]c(=O)oc4c3)CC2)cc1 (stereo not given)"
measured_attribute = "melting point"
obs_value = "177 to 179 °C"

[[record]]
molecule = "Nc1ncccc1-c1nc2cccnc2n1-c1ccc(CNC(=O)c2ccccn2)cc1"
measured_attribute = "melting point"
obs_value = "172 to 174 °C"


Hello, please tell me recorded melting point for this one: O=C(NO)c1ccc(OC(=O)C2(c3ccc(OC(=O)c4ccccc4)cc3)CCCCC2)cc1 114 to 115 °C

Hello, please tell me recorded melting point for this one: O=Cc1ccc(-c2ccc(C(=O)O)cc2)c([N+](=O)[O-])c1 227 to 235 °C

Hello, please tell me recorded melting point for this one: CN1CCC(Cc2ccccc2)(Oc2ccc([N+](=O)[O-])cc2)CC1 116 to 117 °C

Hello, please tell me recorded melting point for this one: C#CCOc1nc(N)nc(-c2ccccc2)c1-c1ccc(=O)n(C(C)C)n1 145 to 147 °C

Hello, please tell me recorded melting point for this one: CC(C)(C)c1cc(NC(=O)Nc2cccc(Cl)c2Cl)c(-c2ccccc2)s1 171 to 173 °C

Hello, please tell me recorded melting point for this one: CCOC(=O)C1=C(CC)NN=C(C(=O)OC)C1c1cccc([N+](=O)[O-])c1 (stereo not given) 139 °C

====

Let's look at some compounds and their measured melting point.

Below, each entry is followed by its recorded melting point result.
[[record]]
compound = "Cc1nn(C2(F)C=CC([N+](=O)[O-])=CC2)c(=O)n1C(F)F (stereo not given)"
obs_value = "82 to 83 °C"

[[record]]
compound = "CC(C)(C)c1cc(C(=O)OCCC(=O)Oc2ccc(Cl)c(N)c2)cc(C(C)(C)C)c1O"
obs_value = "122 to 124 °C"

[[record]]
compound = "CC(C)(C)c1n[nH]c(SCCNC(=O)Nc2ccc(C(F)(F)F)cc2)n1"
obs_value = "238 to 240 °C"

[[record]]
compound = "CCOC(=O)c1ncn2c1CN=C(NCC(OC)OC)c1sccc1-2"
obs_value = "134 °C"

[[record]]
compound = "CC(C)(C(=O)O)c1ccc(OCCCc2cc3c(cc2O)CC(CCc2ccccc2)O3)cc1 (stereo not given)"
obs_value = "134 to 136 °C"

[[record]]
compound = "O=C(NCCBr)Oc1ccccc1"
obs_value = "57 to 60 °C"

[[record]]
compound = "COc1ccc2c(c1)Sc1c(cc(OC)c(OC(=O)c3ccccc3)c1Br)N2"
obs_value = "202 to 203 °C"

[[record]]
compound = "COCCc1nc2c(N)nc3ccccc3c2n1CCC(=O)N1CCOCC1"
obs_value = "125 to 126 °C"

[[record]]
compound = "CN1C[C@@H](C(=O)OC(C)(C)C)N(C(=O)OCc2ccccc2)C1=O"
obs_value = "102 to 103 °C"

[[record]]
compound = "Nc1c(C(=O)O)sc2cc(F)ccc12"
obs_value = "160 to 163 °C"


Hello, please tell me recorded melting point for this one: Cc1c(-c2ccc(OCc3ccccc3)cc2)n(Cc2ccc(OCCN3CCCCCC3)cc2)c2ccc(OCc3ccccc3)cc12 106 to 107 °C

Hello, please tell me recorded melting point for this one: COc1nsc(N[C@@H](CC(C)C)C(=O)N2CCC[C@H]2C(=O)O)n1 89 to 92 °C
